// provenance: ChEMBL document CHEMBL1156219

Target: Prostaglandin E2 receptor EP3 subtype (Mus musculus, UniProt P30557)
Sequence (P30557 whole entry): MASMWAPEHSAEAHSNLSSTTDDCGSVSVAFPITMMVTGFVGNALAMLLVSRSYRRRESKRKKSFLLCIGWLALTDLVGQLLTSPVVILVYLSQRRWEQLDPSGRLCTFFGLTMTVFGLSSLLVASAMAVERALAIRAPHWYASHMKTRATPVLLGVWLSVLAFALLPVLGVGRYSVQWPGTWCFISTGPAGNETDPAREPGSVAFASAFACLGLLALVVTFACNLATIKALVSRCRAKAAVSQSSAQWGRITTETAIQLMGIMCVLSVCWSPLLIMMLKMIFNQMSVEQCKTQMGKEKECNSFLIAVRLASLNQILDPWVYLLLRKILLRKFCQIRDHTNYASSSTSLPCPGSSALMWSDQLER
pKi: −log10 of the molar value.
Kind request: treat 9 as inclusive, so pKi at 9 or higher is YES, anything lower is NO.

INSERT INTO results (compoundstructure, labelclass) VALUES
  ('Cc1csc(S(=O)(=O)NC(=O)CCc2ccc(Cn3cccn3)cc2OCCc2ccc3ccccc3c2)n1', 'YES'),
  ('O=C(CCc1ccc(Cn2cccn2)cc1OCCc1ccc2ccccc2c1)NS(=O)(=O)c1ccc(F)c(F)c1', 'YES'),
  ('N#Cc1cccc(OCc2ccc(CCC(=O)NS(=O)(=O)c3ccc(F)c(F)c3)c(OCCc3ccc4ccccc4c3)c2)c1', 'YES'),
  ('O=C(CCc1ccc(Cn2cccn2)cc1OCCc1ccc2ccccc2c1)NS(=O)(=O)c1ccc(Cl)c(Cl)c1', 'YES'),
  ('Cc1ccc(S(=O)(=O)NC(=O)CCc2ccc(Cn3cccn3)cc2OCCc2ccc3ccccc3c2)cc1Cl', 'YES'),
  ('O=C(CCc1ccc(Cn2cccn2)cc1OCCc1ccc2ccccc2c1)NS(=O)(=O)c1ccccc1', 'YES'),
  ('O=C(O)CCc1ccc(Cn2cccn2)cc1OCCc1ccc2ccccc2c1', 'NO'),
  ('O=C(CCc1ccc(COc2cccnc2)cc1OCCc1ccc2ccccc2c1)NS(=O)(=O)c1ccc(F)c(F)c1', 'YES'),
  ('O=C(NCc1ccc(Cn2cccn2)cc1OCCc1ccc2ccccc2c1)NS(=O)(=O)c1ccccc1', 'NO'),
  ('O=C(NS(=O)(=O)CCc1ccc(Cn2cccn2)cc1OCCc1ccc2ccccc2c1)c1ccccc1', 'NO'),
  ('CN(C)Cc1ccc(CCC(=O)NS(=O)(=O)c2ccc(F)c(F)c2)c(OCCc2ccc3ccccc3c2)c1', 'NO');
